target: Tyrosine-protein kinase ABL1 (Homo sapiens, UniProt P00519); assay: Inhibition of Abl1 kinase (unknown origin) using Tyr 6 peptide as substrate assessed as residual enzyme activity after every 10 secs measured for 10 mins by platform assay
pIC50: −log10 of the molar value.
experimentalReadout: pIC50

[[record]]
smiles = "CN1CCN(Cc2ccc(NC(=O)Nc3cc(C#Cc4cncc5nccn45)n(C)n3)cc2C(F)(F)F)CC1"
quantitativeresult = 8.70

[[record]]
smiles = "Cc1ccc(C(=O)Nc2ccc(CN3CCN(C)CC3)c(C(F)(F)F)c2)cc1C#Cc1cncc2nccn12"
quantitativeresult = 9.70

[[record]]
smiles = "CN1CCN(Cc2ccc(NC(=O)Nc3cc(C#Cc4cnc5cccnn45)n(C)n3)cc2C(F)(F)F)CC1"
quantitativeresult = 7.57

[[record]]
smiles = "CN1CCN(Cc2ccc(NC(=O)Nc3cc(C#Cc4cnc5cnccn45)n(C)n3)cc2C(F)(F)F)CC1"
quantitativeresult = 9.40


====

biological target: Tyrosine-protein kinase ABL1 (Homo sapiens, UniProt P00519, T315I); experiment: Inhibition of Abl1 kinase T315I mutant (unknown origin)
pIC50: −log10 of the molar value.
experimentalReadout: pIC50

[[record]]
smiles = "CN1CCN(Cc2ccc(NC(=O)Nc3cc(C#Cc4cnc5cnccn45)n(C)n3)cc2C(F)(F)F)CC1"
experimentalreadout = "pIC50"
quantitativeresult = 9.10

[[record]]
smiles = "Cc1ccc(C(=O)Nc2ccc(CN3CCN(C)CC3)c(C(F)(F)F)c2)cc1C#Cc1cncc2nccn12"
experimentalreadout = "pIC50"
quantitativeresult = 9.40

[[record]]
smiles = "CN1CCN(Cc2ccc(NC(=O)Nc3cc(C#Cc4cncc5nccn45)n(C)n3)cc2C(F)(F)F)CC1"
experimentalreadout = "pIC50"
quantitativeresult = 8.72

[[record]]
smiles = "CN1CCN(Cc2ccc(NC(=O)Nc3cc(C#Cc4cnc5cccnn45)n(C)n3)cc2C(F)(F)F)CC1"
experimentalreadout = "pIC50"
quantitativeresult = 9.40


====

biological target: Tyrosine-protein kinase ABL1 (Homo sapiens, UniProt P00519, Y253F); assay: Inhibition of Abl1 kinase Y253F mutant (unknown origin)
experimentalReadout: IC50 (pM)

[[record]]
smiles = "Cc1ccc(C(=O)Nc2ccc(CN3CCN(C)CC3)c(C(F)(F)F)c2)cc1C#Cc1cncc2nccn12"
outputunit = "pM"
quantitativeresult = 300

[[record]]
smiles = "CN1CCN(Cc2ccc(NC(=O)Nc3cc(C#Cc4cnc5cccnn45)n(C)n3)cc2C(F)(F)F)CC1"
outputunit = "pM"
quantitativeresult = 400

[[record]]
smiles = "CN1CCN(Cc2ccc(NC(=O)Nc3cc(C#Cc4cncc5nccn45)n(C)n3)cc2C(F)(F)F)CC1"
outputunit = "pM"
quantitativeresult = 900

[[record]]
smiles = "CN1CCN(Cc2ccc(NC(=O)Nc3cc(C#Cc4cnc5cnccn45)n(C)n3)cc2C(F)(F)F)CC1"
outputunit = "pM"
quantitativeresult = 400


====

Reported IC50 values for a set of molecules
molecular target: Tyrosine-protein kinase ABL2 (Homo sapiens, UniProt P42684); test: Inhibition of Abl2 kinase (unknown origin) using Tyr 6 peptide as substrate assessed as residual enzyme activity after every 10 secs measured for 10 mins by platform assay
Sequence (P42684 whole entry): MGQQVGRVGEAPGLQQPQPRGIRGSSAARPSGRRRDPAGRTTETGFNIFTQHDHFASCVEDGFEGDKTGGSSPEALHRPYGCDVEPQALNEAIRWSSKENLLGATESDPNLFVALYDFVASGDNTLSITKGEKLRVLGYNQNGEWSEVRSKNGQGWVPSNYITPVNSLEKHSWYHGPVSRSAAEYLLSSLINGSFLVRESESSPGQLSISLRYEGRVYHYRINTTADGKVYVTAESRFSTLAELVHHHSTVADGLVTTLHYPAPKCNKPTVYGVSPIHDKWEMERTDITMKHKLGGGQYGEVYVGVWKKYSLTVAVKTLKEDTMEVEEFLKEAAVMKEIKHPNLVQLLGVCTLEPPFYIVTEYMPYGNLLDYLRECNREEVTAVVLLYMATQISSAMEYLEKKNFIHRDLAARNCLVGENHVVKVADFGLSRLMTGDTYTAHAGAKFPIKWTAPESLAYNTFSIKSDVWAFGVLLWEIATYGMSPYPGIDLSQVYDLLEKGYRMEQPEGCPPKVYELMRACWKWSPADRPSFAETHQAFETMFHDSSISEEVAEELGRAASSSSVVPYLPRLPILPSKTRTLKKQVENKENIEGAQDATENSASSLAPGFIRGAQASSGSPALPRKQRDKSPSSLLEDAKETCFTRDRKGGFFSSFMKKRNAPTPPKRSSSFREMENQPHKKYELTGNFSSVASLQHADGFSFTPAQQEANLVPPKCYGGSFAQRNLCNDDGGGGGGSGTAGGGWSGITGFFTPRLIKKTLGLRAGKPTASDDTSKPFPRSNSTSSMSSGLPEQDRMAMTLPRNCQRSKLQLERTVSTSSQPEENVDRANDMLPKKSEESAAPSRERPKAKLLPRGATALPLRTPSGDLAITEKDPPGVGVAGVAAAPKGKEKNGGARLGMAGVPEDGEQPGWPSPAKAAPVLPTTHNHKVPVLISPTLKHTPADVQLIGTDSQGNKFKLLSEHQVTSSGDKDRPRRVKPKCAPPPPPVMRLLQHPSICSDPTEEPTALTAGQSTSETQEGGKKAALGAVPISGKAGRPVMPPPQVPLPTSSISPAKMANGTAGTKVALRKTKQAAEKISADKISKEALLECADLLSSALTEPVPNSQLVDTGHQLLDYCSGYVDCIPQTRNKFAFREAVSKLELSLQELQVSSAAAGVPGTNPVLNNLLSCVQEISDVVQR
experimentalReadout: IC50 (nM)

[[record]]
smiles = "CN1CCN(Cc2ccc(NC(=O)Nc3cc(C#Cc4cnc5cnccn45)n(C)n3)cc2C(F)(F)F)CC1"
outputunit = "nM"
quantitativeresult = 3

[[record]]
smiles = "CN1CCN(Cc2ccc(NC(=O)Nc3cc(C#Cc4cncc5nccn45)n(C)n3)cc2C(F)(F)F)CC1"
outputunit = "nM"
quantitativeresult = 11

[[record]]
smiles = "CN1CCN(Cc2ccc(NC(=O)Nc3cc(C#Cc4cnc5cccnn45)n(C)n3)cc2C(F)(F)F)CC1"
outputunit = "nM"
quantitativeresult = 47

[[record]]
smiles = "Cc1ccc(C(=O)Nc2ccc(CN3CCN(C)CC3)c(C(F)(F)F)c2)cc1C#Cc1cncc2nccn12"
outputunit = "nM"
quantitativeresult = 2


====

test: Intrinsic clearance in human liver microsomes; format: ADME, Microsome; conditions: read-out: CLH
Readings of microsomal CLint for the listed compounds
experimentalReadout: microsomal CLint (µL/min/mg)

[[record]]
smiles = "CN1CCN(Cc2ccc(NC(=O)Nc3cc(C#Cc4cncc5nccn45)n(C)n3)cc2C(F)(F)F)CC1"
experimentalreadout = "microsomal CLint"
quantitativeresult = 76

[[record]]
smiles = "CN1CCN(Cc2ccc(NC(=O)Nc3cc(C#Cc4cnc5cccnn45)n(C)n3)cc2C(F)(F)F)CC1"
experimentalreadout = "microsomal CLint"
quantitativeresult = 29

[[record]]
smiles = "Cc1ccc(C(=O)Nc2ccc(CN3CCN(C)CC3)c(C(F)(F)F)c2)cc1C#Cc1cncc2nccn12"
experimentalreadout = "microsomal CLint"
quantitativeresult = 90

[[record]]
smiles = "CN1CCN(Cc2ccc(NC(=O)Nc3cc(C#Cc4cnc5cnccn45)n(C)n3)cc2C(F)(F)F)CC1"
experimentalreadout = "microsomal CLint"
quantitativeresult = 51


====

target: Tyrosine-protein kinase ABL1 (Homo sapiens, UniProt P00519, M351T); experiment: Inhibition of Abl1 kinase M351T mutant (unknown origin)
pIC50: −log10 of the molar value.
experimentalReadout: pIC50

[[record]]
smiles = "CN1CCN(Cc2ccc(NC(=O)Nc3cc(C#Cc4cnc5cnccn45)n(C)n3)cc2C(F)(F)F)CC1"
quantitativeresult = 9.30

[[record]]
smiles = "Cc1ccc(C(=O)Nc2ccc(CN3CCN(C)CC3)c(C(F)(F)F)c2)cc1C#Cc1cncc2nccn12"
quantitativeresult = 9.52

[[record]]
smiles = "CN1CCN(Cc2ccc(NC(=O)Nc3cc(C#Cc4cnc5cccnn45)n(C)n3)cc2C(F)(F)F)CC1"
quantitativeresult = 9.40

[[record]]
smiles = "CN1CCN(Cc2ccc(NC(=O)Nc3cc(C#Cc4cncc5nccn45)n(C)n3)cc2C(F)(F)F)CC1"
quantitativeresult = 9.05

